assay_comment: gradient 5% acetonitrile 3 min, to 50% in 2 min, to 85% in 15 min, held 3 min, 100 µL/min
condition_details: column: Zorbax Extend-C18 2.1 x 50 mm; eluents: water / acetonitrile, 0.1% formic acid
quantity_name: RP-LC retention time (s)

chem_smiles	quantity_name	observed_measurement
O=C(c1ccoc1)N1CCC(F)(C(=O)NCC2CC2)CC1	RP-LC retention time	618
O=C(NCCc1ccc(Cl)cc1)C1CCN(C(=O)c2cccn2-c2cccnc2)CC1	RP-LC retention time	727

(1) O=C(Cc1ccc(Br)cc1)N1CCN(C(=O)c2cc(-c3ccncc3)n[nH]2)CC1
(2) CCCCNC(=O)Cn1c(=O)c2cnc(-c3ccc(Cl)cc3)nc2n(CC)c1=O
Challenge: Endpoint returns whichever of 1 and 2 has the numerically higher RP-LC retention time. Write down the label of the entry you select.
Response given: 2
(2: 1050 s, 1: 622 s)
